Target: FGFR2 V564F (Homo sapiens, UniProt P21802, V564F)
Construct: purchased Signalchem F05-12FG
Sequence (P21802 22-821 V564F): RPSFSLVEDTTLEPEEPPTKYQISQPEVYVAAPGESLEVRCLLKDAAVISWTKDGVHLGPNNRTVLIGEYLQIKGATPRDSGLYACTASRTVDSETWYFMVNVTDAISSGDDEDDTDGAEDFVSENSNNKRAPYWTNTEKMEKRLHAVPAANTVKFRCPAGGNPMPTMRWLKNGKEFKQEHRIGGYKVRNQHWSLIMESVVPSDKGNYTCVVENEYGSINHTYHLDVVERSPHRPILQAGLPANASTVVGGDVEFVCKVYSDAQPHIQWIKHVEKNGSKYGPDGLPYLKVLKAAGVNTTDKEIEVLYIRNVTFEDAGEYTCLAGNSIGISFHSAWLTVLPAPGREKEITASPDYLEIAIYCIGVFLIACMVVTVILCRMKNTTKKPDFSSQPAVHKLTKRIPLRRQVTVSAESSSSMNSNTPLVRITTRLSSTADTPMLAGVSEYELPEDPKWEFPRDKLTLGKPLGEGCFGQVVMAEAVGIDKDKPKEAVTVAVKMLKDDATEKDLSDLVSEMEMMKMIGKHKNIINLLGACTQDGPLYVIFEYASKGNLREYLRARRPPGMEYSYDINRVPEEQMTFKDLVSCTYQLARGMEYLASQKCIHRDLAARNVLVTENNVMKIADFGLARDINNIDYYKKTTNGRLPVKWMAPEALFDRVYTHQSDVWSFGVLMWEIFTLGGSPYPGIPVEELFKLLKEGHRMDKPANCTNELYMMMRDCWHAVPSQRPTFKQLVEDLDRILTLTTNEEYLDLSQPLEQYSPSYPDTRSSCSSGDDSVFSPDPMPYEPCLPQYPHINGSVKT
Test: Assay I: inhibitory activity against FGFR mutants (HTRF KinEASE-TK)
Type: biochemical
Details: ATP 10 μM, substrate TK 1 μM
REPORTED PROPERTY: IC50 (nM)
Answer in nM, number only, no unit symbol.

## Input Given the compound C[C@@H](Oc1ccc2[nH]nc(-c3nc4c([nH]3)CN(C(=O)CN3CCCCC3)C4)c2c1)c1c(Cl)cncc1Cl , what is its reported IC50?
## Output 0.21

## Input Given the compound CC(Oc1ccc2[nH]nc(-c3nc4c([nH]3)CN(C3CC(O)C3)C4)c2c1)c1c(Cl)cncc1Cl (stereo not shown) , what is its reported IC50?
## Output 0.66

## Input Given the compound C[C@@H](Oc1ccc2[nH]nc(-c3nc4c([nH]3)CN(C(=O)CN3CCC(F)C3)C4)c2c1)c1c(Cl)cncc1Cl (stereo partly shown) , what is its reported IC50?
## Output 0.084

## Input Given the compound C[C@@H](Oc1ccc2[nH]nc(-c3nc4c([nH]3)CN(C(=O)CN3CC[C@H](O)C3)C4)c2c1)c1c(Cl)cncc1Cl , what is its reported IC50?
## Output 0.18

## Input Given the compound CC(Oc1ccc2[nH]nc(-c3nc4c([nH]3)CN(CCO)C4)c2c1)c1c(Cl)cncc1Cl (stereo not shown) , what is its reported IC50?
## Output 2

## Input Given the compound CC(Oc1ccc2[nH]nc(-c3nc4c([nH]3)CN(CCN3CCOCC3)C4)c2c1)c1c(Cl)cncc1Cl (stereo not shown) , what is its reported IC50?
## Output 0.29

## Input Given the compound C[C@@H](Oc1ccc2[nH]nc(-c3nc4c([nH]3)CN(C(=O)CN(C)C)C4)c2c1)c1c(Cl)cncc1Cl , what is its reported IC50?
## Output 0.13
